Record form. Attribute: EC50. Fill in for each entry.
- EXPERIMENTAL SYSTEM: Menin (Homo sapiens, UniProt O00255)
- Sequence (O00255 whole entry): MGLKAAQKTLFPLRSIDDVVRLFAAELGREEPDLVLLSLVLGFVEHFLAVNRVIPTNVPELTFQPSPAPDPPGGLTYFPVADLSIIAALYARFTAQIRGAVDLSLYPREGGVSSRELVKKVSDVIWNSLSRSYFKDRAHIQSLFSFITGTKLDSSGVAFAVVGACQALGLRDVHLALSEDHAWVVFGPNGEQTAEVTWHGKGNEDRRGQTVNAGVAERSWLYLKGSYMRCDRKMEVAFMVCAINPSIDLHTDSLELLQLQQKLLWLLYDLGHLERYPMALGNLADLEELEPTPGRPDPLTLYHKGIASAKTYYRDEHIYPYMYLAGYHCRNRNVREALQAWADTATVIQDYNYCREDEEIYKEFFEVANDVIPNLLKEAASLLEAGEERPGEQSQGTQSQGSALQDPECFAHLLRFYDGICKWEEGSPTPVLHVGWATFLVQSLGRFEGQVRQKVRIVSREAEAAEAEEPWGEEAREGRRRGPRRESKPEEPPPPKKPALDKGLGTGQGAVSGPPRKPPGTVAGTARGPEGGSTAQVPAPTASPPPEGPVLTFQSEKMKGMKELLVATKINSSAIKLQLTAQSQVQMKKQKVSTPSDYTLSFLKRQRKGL
- ASSAY SUMMARY: Primary Assay Used to Determine Potency of MEN1 Activity Inhibition

Ask: What does the data say about its EC50? Entry: C=CC(=O)N1CCN(CCn2c(C#N)cc3cc(CN4CCC5(CC4)CN(c4ncnc6ccc(CC(F)(F)F)cc46)C5)ccc32)CC1
Reply: 75 to 500 nM

Ask: Give its EC50 value. Item: Cc1c(CN2CCC3(CC2)CN(c2ncnc4ccc(CC(F)(F)F)cc24)C3)ccc2c1cc(C#N)n2C[C@H](C)N1CCN(S(C)(=O)=O)[C@@H](C)C1
Reply: < 75 nM

Ask: Look at this molecule and give its reported EC50. CS(=O)(=O)N1CCN(CCn2c(C#N)cc3cc(CN4CCC5(CC4)CN(c4ncnc6ccc(CC(F)(F)F)cc46)C5)ccc32)CC1
Reply: < 75 nM

Ask: Query (molecule): Cc1c(CN2CCC3(CC2)CN(c2ncnc4ccc(CC(F)(F)F)cc24)C3)ccc2c1cc(C#N)n2CC12CC(NC=O)(C1)C2 ; field requested: EC50
Reply: < 75 nM

Ask: Data request, read-out EC50, for CCN1CC(Cn2c(C#N)cc3c(C)c(CN4CCC5(CC4)CN(c4ncnc6ccc(CC(F)(F)F)cc46)C5)ccc32)OCC1=O (stereo not given)
Reply: < 75 nM

###

- EXPERIMENTAL SYSTEM: Menin (Homo sapiens, UniProt O00255)
- ASSAY SUMMARY: Primary Assay Used to Determine Potency of MEN1 Activity Inhibition
PROPERTY MEASURED: EC50

Ask: Notebook: pull reported EC50 for Menin (Homo sapiens, UniProt O00255), entry Cc1c(CN2CCC3(CC2)CN(c2ncnc4ccc(CC(F)(F)F)cc24)C3)ccc2[nH]c(C#N)cc12
Reply: < 75 nM

Ask: // fetch Menin (Homo sapiens, UniProt O00255) EC50 for CC(=O)NC12CC(Cn3c(C#N)cc4c(C)c(CN5CCC6(CC5)CN(c5ncnc7ccc(CC(F)(F)F)cc57)C6)ccc43)(C1)C2
Reply: < 75 nM

Ask: Notebook: pull reported EC50 for Menin (Homo sapiens, UniProt O00255), entry Cc1c(CN2CCC3(CC2)CN(c2ncnc4ccc(CC(F)(F)F)cc24)C3)ccc2c1cc(C#N)n2C[C@@H](C)N1CCN(S(C)(=O)=O)[C@@H](C)C1
Reply: < 75 nM
